Source of measurements: ChEMBL document CHEMBL5584239

# Assay Procedure: MRT (0 to t) in rat at 5 mg/kg, iv measured for 1 to 24 hrs by LC-MS analysis
# Format: ADME, organism-based
# Stated Conditions: in vivo, time 1-24 hrs
Assay Endpoint: MRT last (min)
Numbers only here, please. The scale is min.

Identify the reported MRT last for the following entry. CCc1ccccc1C(=O)c1cnc2cc(O)ccc2c1Oc1ccc(/C=C/C(=O)O)cc1 7.2

###

# Assay Procedure: Half life in rat at 5 mg/kg, iv measured for 1 to 24 hrs by LC-MS analysis
# Type: ADME, organism-based
# Stated Conditions: in vivo, time 1-24 hrs
Assay Endpoint: half-life (min)
Numbers only here, please. The scale is min.

Identify the reported half-life for the following entry. CCc1ccccc1C(=O)c1cnc2cc(O)ccc2c1Oc1ccc(/C=C/C(=O)O)cc1 51.8
